- System: GR-ST (B-Lymphoblastic Leukemia)
- experiment_summary: combination Emax (second highest fraction inhibited in the dose matrix, 72 h); higher = more inhibition; extreme values may be limits of the assay
combination Emax below 0.7 gives Not satisfied; combination Emax at or above it gives Satisfied.

**Q:** # bool: combination Emax of O=C(c1cc(Cc2n[nH]c(=O)c3ccccc23)ccc1F)N1CCN(C(=O)C2CC2)CC1 [Olaparib] + Cc1c2c(nn1C)CSCc1cc(n(C)n1)CSc1cc(c3ccccc3c1)OCCCc1c(C(=O)O)n(C)c3c-2c(Cl)ccc13 [AZD5991] (first compound max 10 µM, 7x7, partner max 1 µM) >= 0.7
**A:** Not satisfied

**Q:** Threshold query (combination Emax >= 0.7) on Cc1c2c(nn1C)CSCc1cc(n(C)n1)CSc1cc(c3ccccc3c1)OCCCc1c(C(=O)O)n(C)c3c-2c(Cl)ccc13 [AZD5991] + CC(=O)O[C@H]1C(=O)[C@@]2(C)[C@H]([C@H](OC(=O)c3ccccc3)[C@]3(O)C[C@H](OC(=O)[C@H](O)[C@@H](NC(=O)c4ccccc4)c4ccccc4)C(C)=C1C3(C)C)[C@]1(OC(C)=O)CO[C@@H]1C[C@@H]2O [Paclitaxel] (first compound max 1 µM, 7x7, partner max 3 µM)
**A:** Satisfied

---

- Test system: K-562 (Chronic Myelogenous Leukemia);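 also: after 72 h of two-drug dosing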
- experiment_summary: Bliss excess, mean over the matrix (fraction); higher = more synergy
measured_attribute: Bliss excess
// return a plain number; no unit text

**Q:** # query: Bliss excess of entry CN(CCO)CC[C@H](CSc1ccccc1)Nc1ccc(S(=O)(=O)NC(=O)c2ccc(N3CCC([C@@H](O)c4ccccc4-c4ccc(Cl)cc4)CC3)cc2)cc1S(=O)(=O)C(F)(F)F [AZD4320] + Cn1cnc2c(F)c(Nc3ccc(Br)cc3Cl)c(C(=O)NOCCO)cc21 [Selumetinib] (first compound max 1 µM, 7x7, partner max 3 µM)
**A:** 0.0465

**Q:** Look at this compound and give its reported Bliss excess. C[C@@H]1COCCN1c1cc(C2([S@](C)(=N)=O)CC2)nc(-c2ccnc3[nH]ccc23)n1 [AZD6738] + C1CC(C1)(C(=O)[O-])C(=O)[O-].N.N.[Pt+2] [Carboplatin] (first compound max 10 µM, 7x7, partner max 10 µM)
**A:** -0.031

---

- Test system: L-540 (Hodgkin's Lymphoma)
- experiment_summary: combination Emax (second highest fraction inhibited in the dose matrix, 72 h); higher = more inhibition; extreme values may be limits of the assay
Please provide measured combination Emax for the entries that follow.
Lab note: record the figure alone, no unit after it.

**Q:** Suppose we examine the compound O=C(c1cc(Cc2n[nH]c(=O)c3ccccc23)ccc1F)N1CCN(C(=O)C2CC2)CC1 [Olaparib] + Cc1c2c(nn1C)CSCc1cc(n(C)n1)CSc1cc(c3ccccc3c1)OCCCc1c(C(=O)O)n(C)c3c-2c(Cl)ccc13 [AZD5991] (first compound max 10 µM, 7x7, partner max 1 µM) ; what combination Emax value has been reported?
**A:** 1

**Q:** Any idea what combination Emax was measured for Cc1c2c(nn1C)CSCc1cc(n(C)n1)CSc1cc(c3ccccc3c1)OCCCc1c(C(=O)O)n(C)c3c-2c(Cl)ccc13 [AZD5991] + Cn1cnc2c(F)c(Nc3ccc(Br)cc3Cl)c(C(=O)NOCCO)cc21 [Selumetinib] (first compound max 1 µM, 7x7, partner max 3 µM) ?
**A:** 1

**Q:** For the compound COc1nnc2ccc(N3CCC(c4ccc(OCCN5CCN(C)C(=O)[C@H]5C)cc4)CC3)nn12 [AZD5153] + CC1(C)CCC(CN2CCN(c3ccc(C(=O)NS(=O)(=O)c4ccc(NCC5CCOCC5)c([N+](=O)[O-])c4)c(Oc4cnc5[nH]ccc5c4)c3)CC2)=C(c2ccc(Cl)cc2)C1 [Venetoclax] (first compound max 1 µM, 7x7, partner max 1 µM) , what combination Emax is on record?
**A:** 0.755

**Q:** Reported combination Emax for Cc1cc2ncnn2cc1Nc1ncc2c(n1)n(C1CCOCC1)c(=O)n2C [AZD7648] + O=C(c1cc(Cc2n[nH]c(=O)c3ccccc23)ccc1F)N1CCN(C(=O)C2CC2)CC1 [Olaparib] (first compound max 10 µM, 7x7, partner max 10 µM) : what is it?
**A:** 0.396

**Q:** Which measured combination Emax value corresponds to COc1cccc(OCCCN)c1-c1cc(Nc2cnc(C#N)cn2)n[nH]1 [Prexasertib] + C=CCn1c(=O)c2cnc(Nc3ccc(N4CCN(C)CC4)cc3)nc2n1-c1cccc(C(C)(C)O)n1 [AZD1775] (first compound max 1 µM, partner max 1 µM) ?
**A:** 0.967

**Q:** Data request, read-out combination Emax, for CCN(CCO)CCCOc1ccc2c(Nc3cc(CC(=O)Nc4cccc(F)c4)[nH]n3)ncnc2c1 [AZD2811] + C=CCn1c(=O)c2cnc(Nc3ccc(N4CCN(C)CC4)cc3)nc2n1-c1cccc(C(C)(C)O)n1 [AZD1775] (first compound max 1 µM, partner max 1 µM)
**A:** 0.916

**Q:** Entry under review: N#Cc1cnc(Nc2cc(NC[C@H]3CNCCO3)c(C(F)(F)F)cn2)cn1 [SRA737] + Nc1ccn([C@@H]2O[C@H](CO)[C@@H](O)C2(F)F)c(=O)n1 [Gemcitabine] (first compound max 10 µM, 7x7, partner max 0.3 µM) . Reported combination Emax?
**A:** 0.962
